These measurements were taken from patent US12398142B2.

Target: ABL1 (Homo sapiens (Human))
Assay: Kinase profiling, ABL1 10-dose IC50
Type: biochemical
Details: 10 μM ATP; second run; average of duplicates; read-out: Compound IC50 ABL1 Avg
QUANTITY_MEASURED: IC50 (nM)

* Cc1ccc(C(=O)Nc2ccc(CN3CCc4cn[nH]c4C3)c(Cl)c2)cc1C#Cc1cnc2cccnn12 [CD-1-051] | 9.93
* Cc1ccc(C(=O)Nc2ccc(CN3Cc4cn[nH]c4C3)c(Cl)c2)cc1C#Cc1cnc2cccnn12 [ZD-3-167] | 10.6

* * *

Target: hERG (Homo sapiens (Human))
Assay: in vitro
Conditions: human, pH 7.5
QUANTITY_MEASURED: selectivity ratio at 4 h
The answer should be written as a number, with no unit following it.

- Cc1ccc(C(=O)Nc2ccc(CN3CCc4cn[nH]c4C3)c(Cl)c2)cc1C#Cc1cnc2cccnn12 [CD-1-051]: 506

With those in mind, consider the next compound.
Name the recorded selectivity ratio at 4 h of the compound listed here: Cc1ccc(C(=O)Nc2ccc(CN3Cc4cn[nH]c4C3)c(Cl)c2)cc1C#Cc1cnc2cccnn12 [ZD-3-167] 963

* * *

Quick list: pIC50 per entry.
Molecular target: hERG (Homo sapiens (Human), UniProt Q12809)
Sequence (Q12809 whole entry): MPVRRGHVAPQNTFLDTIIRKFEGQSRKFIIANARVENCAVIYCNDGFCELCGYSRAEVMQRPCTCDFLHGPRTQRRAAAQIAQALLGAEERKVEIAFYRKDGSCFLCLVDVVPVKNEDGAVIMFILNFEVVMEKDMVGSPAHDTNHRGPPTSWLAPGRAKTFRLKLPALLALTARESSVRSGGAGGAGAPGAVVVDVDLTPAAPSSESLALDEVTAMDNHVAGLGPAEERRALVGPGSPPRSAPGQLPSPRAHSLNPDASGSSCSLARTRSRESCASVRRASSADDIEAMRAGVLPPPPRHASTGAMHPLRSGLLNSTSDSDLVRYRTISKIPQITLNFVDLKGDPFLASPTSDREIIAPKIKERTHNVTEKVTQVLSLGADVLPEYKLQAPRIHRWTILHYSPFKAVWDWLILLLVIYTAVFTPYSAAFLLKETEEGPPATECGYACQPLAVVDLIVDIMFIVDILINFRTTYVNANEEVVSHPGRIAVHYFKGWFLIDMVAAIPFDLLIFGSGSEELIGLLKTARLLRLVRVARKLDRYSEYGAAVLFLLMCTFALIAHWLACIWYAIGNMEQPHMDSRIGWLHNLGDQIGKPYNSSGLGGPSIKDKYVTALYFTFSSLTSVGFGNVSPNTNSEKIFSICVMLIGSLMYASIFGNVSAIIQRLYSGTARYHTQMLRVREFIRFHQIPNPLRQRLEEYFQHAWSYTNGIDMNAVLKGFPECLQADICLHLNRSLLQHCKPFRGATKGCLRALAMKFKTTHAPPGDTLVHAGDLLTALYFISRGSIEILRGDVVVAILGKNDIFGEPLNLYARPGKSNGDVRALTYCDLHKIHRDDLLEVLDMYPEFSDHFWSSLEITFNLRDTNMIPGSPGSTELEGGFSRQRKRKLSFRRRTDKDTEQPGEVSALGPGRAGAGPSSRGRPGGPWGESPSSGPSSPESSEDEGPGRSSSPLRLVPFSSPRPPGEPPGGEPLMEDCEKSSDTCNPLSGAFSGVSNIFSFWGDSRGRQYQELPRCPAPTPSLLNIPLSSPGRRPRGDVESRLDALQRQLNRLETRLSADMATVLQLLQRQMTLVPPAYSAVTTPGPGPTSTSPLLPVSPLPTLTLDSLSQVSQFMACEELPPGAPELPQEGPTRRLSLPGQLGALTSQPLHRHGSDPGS
Experiment: hERG profiling, fluorescent Tracer binding competition (FP)
Details: Average hERG (IC50), second run; average
Description: Compounds were prepared as 10 mM DMSO stock and stored at −80° C. Assay Format: The assay is based on the competition of fluorescently labeled Tracer binding to the membrane preparation containing hERG. Assay conditions: 1 nM Predictor™ hERG Tracer Red; 1X Predictor™ hERG Membrane Assay Procedure: Compounds in DMSO were added into the Membrane mixture by using Acoustic Technology. […] FP was measured after 4 hours incubation at room temperature and mP calculated.
Units for pIC50: none; it is -log10 of a concentration expressed in mol/L.

- Cc1ccc(C(=O)Nc2ccc(CN3CCc4cn[nH]c4C3)c(Cl)c2)cc1C#Cc1cnc2cccnn12 [CD-1-051]: 5.30

With those in mind, consider the next compound.
Name the recorded pIC50 of the compound listed here: Cc1ccc(C(=O)Nc2ccc(CN3Cc4cn[nH]c4C3)c(Cl)c2)cc1C#Cc1cnc2cccnn12 [ZD-3-167] 4.99

* * *

Target: UniProtKB P00519
Assay: Kinase profiling, ABL1 10-dose IC50
Format: biochemical
Details: 10 μM ATP; second run; read-out: Compound IC50 ABL1 Data 2
QUANTITY_MEASURED: IC50 (nM)

- Cc1ccc(C(=O)Nc2ccc(CN3CCc4cn[nH]c4C3)c(Cl)c2)cc1C#Cc1cnc2cccnn12: 8.87
- Cc1ccc(C(=O)Nc2ccc(CN3Cc4cn[nH]c4C3)c(Cl)c2)cc1C#Cc1cnc2cccnn12: 10.1

* * *

Target: ABL1 (Homo sapiens (Human), UniProt P00519)
Sequence (P00519 whole entry): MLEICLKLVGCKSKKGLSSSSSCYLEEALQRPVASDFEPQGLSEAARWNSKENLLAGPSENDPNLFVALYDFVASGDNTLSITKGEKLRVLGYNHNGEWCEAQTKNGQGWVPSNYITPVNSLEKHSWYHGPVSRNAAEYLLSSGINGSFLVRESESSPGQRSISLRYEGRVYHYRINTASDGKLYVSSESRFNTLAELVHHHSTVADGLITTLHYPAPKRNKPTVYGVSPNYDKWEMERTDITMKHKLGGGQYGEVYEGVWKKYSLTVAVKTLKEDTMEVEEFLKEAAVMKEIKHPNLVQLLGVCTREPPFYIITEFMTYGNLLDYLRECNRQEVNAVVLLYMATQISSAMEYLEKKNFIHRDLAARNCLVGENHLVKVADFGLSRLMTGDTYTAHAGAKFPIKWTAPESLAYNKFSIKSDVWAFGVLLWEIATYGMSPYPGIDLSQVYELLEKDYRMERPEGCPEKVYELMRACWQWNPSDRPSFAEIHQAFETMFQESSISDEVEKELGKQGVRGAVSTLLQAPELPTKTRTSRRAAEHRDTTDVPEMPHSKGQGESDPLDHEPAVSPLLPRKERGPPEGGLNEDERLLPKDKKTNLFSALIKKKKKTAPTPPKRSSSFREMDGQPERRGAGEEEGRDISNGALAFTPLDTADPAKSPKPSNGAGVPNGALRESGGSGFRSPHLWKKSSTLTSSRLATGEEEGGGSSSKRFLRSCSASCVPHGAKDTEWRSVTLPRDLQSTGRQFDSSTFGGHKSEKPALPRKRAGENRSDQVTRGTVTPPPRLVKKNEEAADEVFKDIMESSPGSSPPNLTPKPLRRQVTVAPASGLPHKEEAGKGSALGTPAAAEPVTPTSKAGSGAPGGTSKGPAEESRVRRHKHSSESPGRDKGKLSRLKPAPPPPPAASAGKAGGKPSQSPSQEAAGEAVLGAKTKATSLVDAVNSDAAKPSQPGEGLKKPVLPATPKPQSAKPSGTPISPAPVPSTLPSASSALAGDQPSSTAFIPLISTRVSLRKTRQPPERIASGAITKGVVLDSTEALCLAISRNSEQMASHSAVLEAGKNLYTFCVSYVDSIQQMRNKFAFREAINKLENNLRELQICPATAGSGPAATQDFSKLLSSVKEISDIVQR
Experiment: Kinase profiling, ABL1 10-dose IC50
Assay type: biochemical
Conditions: 10 μM ATP; second run (CD-1-051, ZD-3-167, CD-1-067); read-out: Compound IC50 ABL1 Data 1
pIC50: −log10 of the molar value.
QUANTITY_MEASURED: pIC50

* Cc1ccc(C(=O)Nc2ccc(CN3CCc4cn[nH]c4C3)c(Cl)c2)cc1C#Cc1cnc2cccnn12 | 7.96
* Cc1ccc(C(=O)Nc2ccc(CN3Cc4cn[nH]c4C3)c(Cl)c2)cc1C#Cc1cnc2cccnn12 | 7.95

* * *

Molecular target: ABL1 (Homo sapiens (Human), UniProt P00519)
Test: Kinase profiling, ABL1 10-dose IC50
Type: biochemical
Conditions: 10 μM ATP; first run; read-out: Compound IC50 ABL1 Data 2
QUANTITY_MEASURED: IC50 (nM)

- Cc1ccc(C(=O)Nc2ccc(CN3CCN(CCO)CC3)c(Cl)c2)cc1C#Cc1cnc2cccnn12: 0.285

I. Cc1ccc(C(=O)Nc2ccc(CN3CCN(CCO)CC3)c(C3CC3)c2)cc1C#Cc1cnc2cccnn12
II. COCCN1CCN(Cc2ccc(NC(=O)c3ccc(C)c(C#Cc4cnc5cccnn45)c3)cc2C2CC2)CC1
Thinking about recorded IC50 values, which is higher, I or II ? Please respond with the label that marks your chosen entry. II

* * *

Quick list: SI per entry.
Target: UniProt Q12809
Experiment: in vitro
Conditions: human, pH 7.5
The answer should be written as a number, with no unit following it.

* Cc1ccc(C(=O)Nc2ccc(CN3CCN(CCO)CC3)c(Cl)c2)cc1C#Cc1cnc2cccnn12 | 1158
* Cc1ccc(C(=O)Nc2ccc(CN3CCc4cn[nH]c4C3)c(Cl)c2)cc1C#Cc1cnc2cccnn12 | 506
* COCCN1CCN(Cc2ccc(NC(=O)c3ccc(C)c(C#Cc4cnc5cccnn45)c3)cc2C2CC2)CC1 | 126

With those in mind, consider the next compound.
Name the recorded SI of the compound listed here: "Cc1ccc(C(=O)Nc2ccc(CN3CCN(CCO)CC3)c(C3CC3)c2)cc1C#Cc1cnc2cccnn12" 263

* * *

Molecular target: ABL1 (Homo sapiens (Human))
Experiment: Kinase profiling, ABL1 10-dose IC50
Format: biochemical
Conditions: summary table; read-out: Abl1 IC50
QUANTITY_MEASURED: IC50 (pM)

// known answers, use as guide
* Cc1ccc(C(=O)Nc2ccc(CN3CCc4cn[nH]c4C3)c(Cl)c2)cc1C#Cc1cnc2cccnn12 [CD-1-051] | 9930
* Cc1ccc(C(=O)Nc2ccc(CN3CCN(CCO)CC3)c(C3CC3)c2)cc1C#Cc1cnc2cccnn12 [TK3-144] | 390

a. Cc1ccc(C(=O)Nc2ccc(CN3CCN(CCO)CC3)c(Cl)c2)cc1C#Cc1cnc2cccnn12 [TK3-141]
b. COCCN1CCN(Cc2ccc(NC(=O)c3ccc(C)c(C#Cc4cnc5cccnn45)c3)cc2C2CC2)CC1 [CD-1-002]
c. Cc1ccc(C(=O)Nc2ccc(CN3Cc4cn[nH]c4C3)c(Cl)c2)cc1C#Cc1cnc2cccnn12 [ZD-3-167]
Output the entries ranked by IC50 from maximum down to minimum. Give me the labels in the order the question wants. c, b, a

* * *

Biological target: UniProt:P08684
Sequence (P08684 whole entry, species assumed): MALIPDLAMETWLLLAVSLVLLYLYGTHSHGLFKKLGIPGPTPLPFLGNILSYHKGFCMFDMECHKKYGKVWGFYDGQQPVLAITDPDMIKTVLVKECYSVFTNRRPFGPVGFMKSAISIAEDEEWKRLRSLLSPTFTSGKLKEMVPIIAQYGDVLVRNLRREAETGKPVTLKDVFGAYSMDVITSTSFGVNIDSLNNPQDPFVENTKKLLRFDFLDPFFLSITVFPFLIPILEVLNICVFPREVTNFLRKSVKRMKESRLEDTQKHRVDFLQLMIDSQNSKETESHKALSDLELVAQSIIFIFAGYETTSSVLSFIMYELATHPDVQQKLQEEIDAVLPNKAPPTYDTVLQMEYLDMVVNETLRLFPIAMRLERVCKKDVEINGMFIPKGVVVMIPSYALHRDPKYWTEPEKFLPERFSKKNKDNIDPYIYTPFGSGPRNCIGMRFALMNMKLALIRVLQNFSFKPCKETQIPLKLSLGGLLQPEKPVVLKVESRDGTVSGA
Experiment: CYP3A4 IC50
Assay type: in vitro ADME
Details: unit given as mM
QUANTITY_MEASURED: IC50 (mM)

// known answers, use as guide
- COCCN1CCN(Cc2ccc(NC(=O)c3ccc(C)c(C#Cc4cnc5cccnn45)c3)cc2C2CC2)CC1: 0.0128
- Cc1cn(-c2cc(NC(=O)c3ccc(C)c(Nc4nccc(-c5cccnc5)n4)c3)cc(C(F)(F)F)c2)cn1 [Nilotinib, reference compound]: 0.00058
- Cc1ccc(C(=O)Nc2ccc(CN3Cc4cn[nH]c4C3)c(Cl)c2)cc1C#Cc1cnc2cccnn12: 0.00728
- Cc1ccc(C(=O)Nc2ccc(CN3Cc4ccc(O)cc4C3)c(Cl)c2)cc1C#Cc1cnc2cccnn12: 0.00461
- Cc1ccc(C(=O)Nc2ccc(CN3CCc4cn[nH]c4C3)c(Cl)c2)cc1C#Cc1cnc2cccnn12: 0.00557

a. Cc1ccc(C(=O)Nc2ccc(CN3CCN(CCO)CC3)c(C3CC3)c2)cc1C#Cc1cnc2cccnn12
b. Cc1ccc(C(=O)Nc2ccc(CN3CCN(CCO)CC3)c(Cl)c2)cc1C#Cc1cnc2cccnn12
Of the pair a and b , name the member with the lesser recorded IC50. Please respond with the label that marks your chosen entry. b

* * *

Biological target: hERG (Homo sapiens (Human))
Assay: hERG profiling, fluorescent Tracer binding competition (FP)
Conditions: IC50 of Tracer Binding hERG Data 2, second run
QUANTITY_MEASURED: IC50 (µM)
# number only, unit µM dropped from output

Name the recorded IC50 of the compound listed here: "Cc1ccc(C(=O)Nc2ccc(CN3CCc4cn[nH]c4C3)c(Cl)c2)cc1C#Cc1cnc2cccnn12" 6.2

* * *

Molecular target: UniProt:P00519
Assay: Kinase profiling, ABL1 10-dose IC50
Type: biochemical
Conditions: 10 μM ATP; first run; average of duplicates; read-out: Compound IC50 ABL1 Avg
QUANTITY_MEASURED: IC50 (nM)

* Cc1ccc(C(=O)Nc2ccc(CN3CCN(CCO)CC3)c(Cl)c2)cc1C#Cc1cnc2cccnn12 [TK3-141] | 0.297

I. COCCN1CCN(Cc2ccc(NC(=O)c3ccc(C)c(C#Cc4cnc5cccnn45)c3)cc2C2CC2)CC1 [CD-1-002]
II. Cc1ccc(C(=O)Nc2ccc(CN3CCN(CCO)CC3)c(C3CC3)c2)cc1C#Cc1cnc2cccnn12 [TK3-144]
Of the pair I and II , name the member with the lesser recorded IC50. Please respond with the label that marks your chosen entry. II
(II: 0.392 nM, I: 0.643 nM)
